All figures here come from patent EP4755916A1.

- system.name: T1, human BTN3A1 expressed on HEK293 cells (human, UniProt O00481 30-513)
- T1 construct: whole, on cells; also called BTN3A1-expressing HEK293 cells; human BTN3A1-overexpressing cells
- assay.explanation: flow cytometry, HEK293 cells overexpressing human BTN3A1
property.label: Max FACS mean fluorescence intensity (MFI)

binder	u	result.number
20A3 (a human-rabbit chimeric antibody, parent) (antibody, human IgG1, kappa, V domains shown, Rabbit variable regions on the human IgG1 constant region with L234F/L235E/P331S (Eu numbering) and human Ckappa) VH: QSVEESGGRLVTPGTPLTLTCTASGFTINNYYMNWVRQAPGKGLEWIGIIYGSDNTYYASWAKGRFTISKTSTTVDLIMTSPTTEDTATYFCVRNLDYSSAYFHIWGPGTLVTVSS VL: QVLTQTPSPVSAAVGGTVSISCQASQSVYNNNRLAWYQQKPGQPPNLLIYEASKLASGVPSRFKGSGSGTQFTLIISEVQCEDAATYYCQGYYSGFIYPFGGGTEVVVKR	MFI	95800
